Each entry below lists one item and its recorded Vero Viability value.
- Tested on: Vero cells
- ASSAY_TEXT: Cell viability (CellTiter-Glo) of Vero cells
- Assay type: cell-based
- MEASUREMENT_CONDITIONS: 10 µM compound, 40 h, CellTiter-Glo; ± SEM, three independent trials

| COMPOUND | Vero Viability |
| --- | --- |
| CN(C)CCCn1cc(C2=C(c3c[nH]c4ccccc34)C(=O)NC2=O)c2ccccc21 | 36.0 ± 9% of untreated control |
| O=S(=O)(F)Cc1ccccc1 | 98.3 ± 2% of untreated control |

[Q] Consider the compound CCOC(=O)C1=C(C)NC(C)=C(C(=O)OC)C1c1cccc([N+](=O)[O-])c1 (stereo not drawn) tested on Vero cells; state its Vero Viability.
[A] 88.7 ± 1.9% of untreated control

[Q] Consider the compound `CC(Oc1ccc(O)cc1)(P(=O)(O)O)P(=O)(O)O` tested on Vero cells; state its Vero Viability.
[A] 93.7 ± 3.5% of untreated control

[Q] Consider the compound `Cn1c(=O)c2c(ncn2C)n(C)c1=O` tested on Vero cells; state its Vero Viability.
[A] 104.7 ± 8.6% of untreated control

---

Each entry below lists one item and its recorded ZIKV SPH Relative Titer in Vero Cells value.
- Tested on: ZIKV SPH
- ASSAY_TEXT: Autophagy compound library screen, ZIKV SPH titer (TCID50) in Vero cells
- Assay type: cell-based, Zika virus
- MEASUREMENT_CONDITIONS: 10 µM compound, MOI 0.1, 40 h, TCID50; ± SEM, three independent trials

These recorded examples may help you get a feel for the data.
| COMPOUND | SYSTEM | ZIKV SPH Relative Titer in Vero Cells |
| --- | --- | --- |
| COC(=O)C1=C(C)NC(C)=C([N+](=O)[O-])C1c1ccccc1C(F)(F)F (racemic) [(±)Bay K8644] | ZIKV SPH | 34.9 ± 15.2% of untreated control |
| C[C@H](CCC(=O)[O-])[C@H]1CC[C@H]2[C@@H]3CC[C@@H]4C[C@H](O)CC[C@]4(C)[C@H]3C[C@H](O)[C@]12C.[Na+] [Deoxycholate·Na] | ZIKV SPH | 76.6 ± 16.6% of untreated control |
| COc1cccc(-c2cc(=O)c3ccccc3o2)c1N [PD-98059] | ZIKV SPH | 101.0 ± 23.3% of untreated control |
| O=C(CC(=O)C(F)(F)F)c1cccs1 [TTFA] | ZIKV SPH | 24.4 ± 7.6% of untreated control |
| [Cl-].[Li+] [Lithium Chloride] | ZIKV SPH | 85.4 ± 18.7% of untreated control |
| CCCCCC[C@@H]([C@@H](C)O)n1cnc2c(N)ncnc21.Cl [EHNA·HCl] | ZIKV SPH | 81.0 ± 7.6% of untreated control |

Proceeding to the next compound to report its ZIKV SPH Relative Titer in Vero Cells.
[Q] Give a short answer stating reported ZIKV SPH Relative Titer in Vero Cells for Cl.O=C(NCc1ccncc1)C12CC3C[C@H](C1)CC(c1ccc(Cl)cc1)(C3)C2 [ABC294640·HCl] .
[A] 51.7 ± 29.2% of untreated control

---

- System: Vero cells
- ASSAY_TEXT: Cell viability (CellTiter-Glo) of Vero cells
- Type: cell-based
- MEASUREMENT_CONDITIONS: 10 µM compound, 40 h, CellTiter-Glo; ± SEM, three independent trials
PROPERTY_NAME: Vero Viability

[Q] Consider the compound `C[C@H]1O[C@@H](n2cnc3c(N)ncnc32)C[C@@H]1O` tested on Vero cells; state its Vero Viability.
[A] 95.0 ± 1.5% of untreated control

[Q] Consider the compound CNCCCN1c2ccccc2CCc2ccc(Cl)cc21.Cl [Norclomipramine HCl] tested on Vero cells; state its Vero Viability.
[A] 48.7 ± 22.9% of untreated control

[Q] Consider the compound `COc1cc(CNC(=O)CCCC/C=C/C(C)C)ccc1O` tested on Vero cells; state its Vero Viability.
[A] 91.7 ± 2.4% of untreated control

[Q] Consider the compound `COc1ccc(C[C@H]2NC[C@H](O)[C@H]2OC(C)=O)cc1` tested on Vero cells; state its Vero Viability.
[A] 12.7 ± 4.3% of untreated control

[Q] Consider the compound `C[C@H](CCC(=O)O)C[C@H](C)C[C@H](C)C(=O)/C=C(\O)[C@H](C)C[C@H](C)C/C=C/[C@@H](C)[C@@H](O)[C@@H](C)[C@@H](O)C[C@@H]1CC[C@@](C)([C@H]2CC[C@@](C)([C@@H](C)O)O2)O1` tested on Vero cells; state its Vero Viability.
[A] 27.7 ± 10.4% of untreated control

[Q] Consider the compound `N#CC(C#N)=C(N)/C(C#N)=C/c1ccc(O)cc1` tested on Vero cells; state its Vero Viability.
[A] 96.7 ± 3.7% of untreated control

[Q] Consider the compound `O[C@@H](CS)[C@@H](O)CS` tested on Vero cells; state its Vero Viability.
[A] 93.0 ± 1.5% of untreated control

[Q] Consider the compound COC(=O)C1=C(C)NC(C)=C([N+](=O)[O-])C1c1ccccc1C(F)(F)F (racemic) [(±)Bay K8644] tested on Vero cells; state its Vero Viability.
[A] 94.0 ± 3% of untreated control

[Q] Consider the compound `Nc1ncnc2c1nc(Sc1ccc(Cl)cc1)n2[C@@H]1O[C@@H]2COP(=O)([O-])O[C@H]2[C@H]1O.[Na+]` tested on Vero cells; state its Vero Viability.
[A] 92.7 ± 0.7% of untreated control

[Q] Consider the compound `NC(=O)c1ncn([C@@H]2O[C@H](CO)[C@@H](O)[C@H]2O)c1N` tested on Vero cells; state its Vero Viability.
[A] 90.0 ± 11.1% of untreated control

[Q] Consider the compound `O=c1cc(N2CCOCC2)oc2c(-c3ccccc3)cccc12` tested on Vero cells; state its Vero Viability.
[A] 56.0 ± 6% of untreated control

[Q] Consider the compound `COC[C@H]1OC(=O)c2coc3c2[C@@]1(C)C1=C(C3=O)[C@@H]2CCC(=O)[C@@]2(C)C[C@H]1OC(C)=O` tested on Vero cells; state its Vero Viability.
[A] 79.0 ± 3.1% of untreated control

[Q] Consider the compound CCN(CC)CCCC(C)Nc1ccnc2cc(Cl)ccc12 (stereo not shown) tested on Vero cells; state its Vero Viability.
[A] 89.7 ± 4.4% of untreated control

[Q] Consider the compound `Cc1cccc(Nc2nc(-c3ccncc3)cs2)c1` tested on Vero cells; state its Vero Viability.
[A] 77.3 ± 11.7% of untreated control

[Q] Consider the compound `C=CCNc1ncnc2ccc(Br)cc12` tested on Vero cells; state its Vero Viability.
[A] 92.7 ± 3.5% of untreated control

[Q] Consider the compound `CO/C1=C\C(C)=C\[C@@H](C)[C@@H](O)[C@@H](C)C/C(C)=C/C=C/[C@H](OC)[C@@H]([C@@H](C)[C@@H](O)[C@H](C)[C@@]2(O)C[C@@H](O)[C@H](C)[C@@H](C(C)C)O2)OC1=O` tested on Vero cells; state its Vero Viability.
[A] 55.7 ± 9.5% of untreated control

Numbers sourced from paper PMC6356585.
